Tested on: Male Sprague-Dawley rats
Type: in vivo
CONDITION: rat, intraperitoneal, 30 μg/kg, 0.5 hr feeding period, vs saline controls
Can you tell me % FEEDING INHIBITION 0.5 hr for the items I'm about to list?
Form entry: value (%) — number only.

## Task # input substance: Hpp(SO3 sH)-Ile-Gly-Trp-Ahx-Asp-MePhe-NH2 [Hpp(SO3 H)-Ile-Gly-Trp-Ahx-Asp-MePhe-NH2] ; wanted: its % FEEDING INHIBITION 0.5 hr
## Result 98

## Task // repeat for Suc-Tyr(SO3 ° H)-Ahx-Gly-Trp-Ahx-Asp-MePhe-NH2 and report
## Result 100

## Task Query iBuOCO-Tyr(SO3 H)-Ahx-Gly-Trp-Ahx-Asp-Phe-NH2 next
## Result 100

## Task H-Asp-Tyr(SO3 H)-Ahx-Gly-Trp-Ahx-Asp-Phe-NH2 ?
## Result 82

## Task And for Suc-Tyr(SO3 H)-Ile-Gly-Trp-Ahx-Asp-MePhe-NH2 ?
## Result 100

## Task Another substance to check: Hpp(SO3 H)-Ahx-Gly-Trp-Ahx-Asp-Phe-NH2
## Result 100

## Task And the next one, Suc-Tyr(SO3 H)-Ahx-Gly-Trp-Ahx-Asp-Phe-NH2 ?
## Result 100

## Task Request: Hpp(SO3 sH)-Ahx-Gly-Trp-Ahx-Asp-MePhe-NH2 [Hpp(SO3 H)-Ahx-Gly-Trp-Ahx-Asp-MePhe-NH2]
## Result 94

## Task Also check H-Asp-Tyr(SO3 H)-Met-Gly-Trp-Ahx-Asp-Phe-NH2
## Result 82

## Task Now consider iBuOCO-Tyr(SO3 H)-Ahx-Gly-Trp-Ahx-Asp-MePhe-NH2 .
## Result 100

Ref: patent US5086042A
